B1: VH:VL chains; a variant is named by its letters at X, in order (parent)
chain 1: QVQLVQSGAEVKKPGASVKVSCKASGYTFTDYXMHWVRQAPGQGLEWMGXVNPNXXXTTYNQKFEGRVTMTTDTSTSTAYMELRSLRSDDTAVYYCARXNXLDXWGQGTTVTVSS
chain 2: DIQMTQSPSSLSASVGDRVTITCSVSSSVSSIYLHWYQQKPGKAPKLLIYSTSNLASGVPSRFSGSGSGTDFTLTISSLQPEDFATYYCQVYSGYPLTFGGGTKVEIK

Variants of: B1
Assay: yeast display scFab, FACS + sequencing
Endpoint name: non-specific binding call

>>> df
    mutation_descriptor              endpoint_name      result
 0             SEARSAAV  non-specific binding call  no binding
 1             VARGGSVD  non-specific binding call  no binding
 2             FREGGAVS  non-specific binding call       binds
 3             YRGRGVSD  non-specific binding call       binds
 4             YKAGGALD  non-specific binding call       binds
 5             SKTKSDVA  non-specific binding call  no binding
 6             FRGGSAGD  non-specific binding call       binds
 7             DRAGDDWY  non-specific binding call  no binding
 8             VAERSFGV  non-specific binding call       binds
 9             YRRRGAGY  non-specific binding call       binds
10             YRKENYGD  non-specific binding call       binds
11             VEEASSWA  non-specific binding call  no binding
12             DRGGSAGD  non-specific binding call  no binding
13             FRGGGSWA  non-specific binding call       binds
14             YTGGGDGV  non-specific binding call  no binding
15             YRRRGDVY  non-specific binding call       binds
16             STAEDFVV  non-specific binding call  no binding
17             YEGRNVGV  non-specific binding call       binds
18             AAGGDYVF  non-specific binding call  no binding
19             FTGTSAAF  non-specific binding call       binds
20             SAGGGAWV  non-specific binding call  no binding
21             SETGAALD  non-specific binding call  no binding
22             YKKGGSLD  non-specific binding call       binds
23             FRGRGYVV  non-specific binding call       binds
24             SAGGGAGD  non-specific binding call  no binding
25             YERRNDVV  non-specific binding call  no binding
26             DEGGTDVY  non-specific binding call  no binding
27             VGGTSSLD  non-specific binding call  no binding
28             YRRRGAAA  non-specific binding call       binds
29             DAKENDVA  non-specific binding call  no binding
30             DKGGSDVV  non-specific binding call  no binding
31             DAEKDSGA  non-specific binding call  no binding
32             ATGGDSGD  non-specific binding call  no binding
33             YRRGGAWA  non-specific binding call       binds
34             YKRGGSSY  non-specific binding call  no binding
35             FRTGDAGA  non-specific binding call  no binding
36             YRAGDAVV  non-specific binding call  no binding
37             FRRGGAGD  non-specific binding call       binds
38             VKARGSLA  non-specific binding call       binds
39             VAEKGFLV  non-specific binding call       binds
40             DAERDSGV  non-specific binding call  no binding
41             YAEESSGV  non-specific binding call  no binding
42             DEGGTDSA  non-specific binding call  no binding
43             YRGAAASS  non-specific binding call  no binding
44             FRGEGALV  non-specific binding call       binds
45             FAAGSYAV  non-specific binding call       binds
